system: MT4 cells; assay: Cytotoxicity (CC50) in MT4 cells within the antiviral assay; type: cell-based; conditions: MT4 cells, 5 days incubation, CellTiter-Glo; average over assays; read-out: CC50
With a cut-off of 20 µM, any CC50 strictly below it is called yes; any CC50 meeting it or above is called no.

| compound | cat |
| --- | --- |
| O=C(NCc1ccc(F)c(Cl)c1F)c1cn2c(c(O)c1=O)C(=O)N1CC=CC[C@]13COCC[C@H]23 [Compound 25] | no |
| O=C(NCc1ccc(F)c(Cl)c1F)c1cn2c(c(O)c1=O)C(=O)N1CCS[C@]13COCC[C@H]23 (racemic) [Compound 103] | yes |
| O=C(NCc1ccc(F)c(Cl)c1F)c1cn2c(c(O)c1=O)C(=O)N1CC=CC[C@]13CCOC[C@H]23 [Compound 14] | yes |
| O=C(NCc1c(F)cc(F)cc1F)c1cn2c(c(O)c1=O)C(=O)N1CCCC[C@]13COCC[C@H]23 [Compound 31] | no |
| C[C@@H]1CO[C@@]23CCOC[C@@H]2n2cc(C(=O)NCc4ccc(F)c(Cl)c4F)c(=O)c(O)c2C(=O)N13 [Compound 100] | yes |
| C[C@H]1CCO[C@]23CCC[C@H]2n2cc(C(=O)NCc4ccc(F)c(Cl)c4F)c(=O)c(O)c2C(=O)N13 [Compound 80] | yes |

* * *

system: HIV-IIIb; experiment: Antiviral assay in MT4 cells; assay type: cell-based; conditions: Human immunodeficiency virus 1, IIIB, MT4, 120 h, MT4 cells infected with HIV-IIIb (0.004 m.o.i.), 5 days incubation, CellTiter-Glo; average over assays
pEC50: −log10 of the molar value.

| molecule | pEC50 |
| --- | --- |
| O=C(NCc1ccc(F)c(Cl)c1F)c1cn2c(c(O)c1=O)C(=O)N1CCO[C@]13CCCC[C@H]23 (racemic) | 8.35 |
| C[C@@H]1CO[C@@]23CCOC[C@@H]2n2cc(C(=O)NCc4ccc(F)c(Cl)c4F)c(=O)c(O)c2C(=O)N13 | 8.74 |
| O=C(NCc1ccc(F)c(Cl)c1F)c1cn2c(c(O)c1=O)C(=O)N1CC=CC[C@]13CCOC[C@H]23 | 8.34 |
| O=C(NCc1ccc(F)c(Cl)c1F)c1cn2c(c(O)c1=O)C(=O)N1CC=CC[C@]13COC[C@H]23 | 8.62 |
| O=C(NCc1c(F)cc(F)cc1F)c1cn2c(c(O)c1=O)C(=O)N1CC=CC[C@]13COCC[C@H]23 | 8.59 |
| C[C@H]1CO[C@]23CCC[C@H]2n2cc(C(=O)NCc4c(F)cc(F)cc4F)c(=O)c(O)c2C(=O)N13 | 8.33 |
| O=C(NCc1c(F)cc(F)cc1F)c1cn2c(c(O)c1=O)C(=O)N1CCCC[C@]13COCC[C@H]23 | 8.71 |

* * *

We begin with a simple list: items and their reported CC50 at 5 days.
assay: Cytotoxicity (CC50) in MT4 cells within the antiviral assay; type: cell-based; conditions: human, MT4 cells (mock-infected); MT4 cells, 5 days incubation, CellTiter-Glo; average over assays
quantity-measured: CC50 at 5 days (µM)

| compound | val |
| --- | --- |
| O=C(NCc1ccc(F)c(Cl)c1F)c1cn2c(c(O)c1=O)C(=O)N1CCCC[C@]13COC[C@H]23 [Compound 42] | 7.48 |
| C[C@@H]1CO[C@@]23CCOC[C@@H]2n2cc(C(=O)NCc4ccc(F)c(Cl)c4F)c(=O)c(O)c2C(=O)N13 [Compound 94] | 3.99 |
| C[C@@H]1CO[C@@]23CCC[C@@H]2n2cc(C(=O)NCc4c(F)cc(F)cc4F)c(=O)c(O)c2C(=O)N13 [Compound 66] | 6.92 |
| C[C@@H]1CO[C@@]23CCC[C@@H]2n2cc(C(=O)NCc4ccc(F)c(Cl)c4F)c(=O)c(O)c2C(=O)N13 [Compound 65] | 5.53 |
| O=C(NCc1ccc(F)c(Cl)c1F)c1cn2c(c(O)c1=O)C(=O)N1CC=CC[C@]13COC[C@H]23 [Compound 41] | 9.19 |
| C[C@H]1CO[C@]23CCC[C@H]2n2cc(C(=O)NCc4ccc(F)c(Cl)c4F)c(=O)c(O)c2C(=O)N13 [Compound 69] | 15.6 |
| C[C@@H]1CN2C(=O)c3c(O)c(=O)c(C(=O)NCc4ccc(F)c(Cl)c4F)cn3[C@@H]3CCC[C@@]32O1 (single isomer, unassigned) [Compound 74] | 5.77 |
